Biological target: T1, Monomeric 8-histidine tagged human EGFRvIII extracellular domain (human, UniProt P00533 298-645)
T1 construct: Analyte in all SPR assays; not shown: 8-histidine tag
Experiment: SPR, scFv-Fc captured by anti-human Fc, 37 C
QUANTITY KIND: log10 of koff (log10 of the value in s⁻¹)
Please note: log10 values; quantity koff; unit s⁻¹.

Known log10 of koff results, listed for orientation:
[
  {
    "BINDER": "30D8.HL scFv-Fc protein (Fc fusion, HL: heavy-chain variable domain at the N-terminus; not shown: human IgG1 Fc moiety) EVQLVESGGGLVKPGGSLRLSCEASGFTFSDAWMSWVRQAPGKGLEWVGRIKSKTDGGTTDYVVPLNGRFIISRDDSRNTLYLQLNNLKTEDTAVYYCTTVPGSYGYWGQGTLVTVSSGGGGSGGGGSGGGGSGGGGSDIVMTQSPLSLPVTPGEPASISCRSSQSLLHNKRNNYLDWFLQKPGQSPQLLIYLASNRASGVPDRFSGGGSGTDFTLKISRVEAEDVGVYYCMQAQQTPITFGQGTRLEIK",
    "QUANTITY KIND": "log10 of koff",
    "RECORDED MEASUREMENT": -1.28
  },
  {
    "BINDER": "20E12.LH scFv-Fc protein (Fc fusion, LH: light-chain variable domain at the N-terminus; not shown: human IgG1 Fc moiety) DIVLTQSPLSLSVTPGEPASISCRSSQSLLYSNGKNYLDWFLHKPGQSPQLLIYLGSNRASGVPDRFSGSGSGIDFILKISRVEAEDVGVYYCMQAQQTPITFGQGTRLEIKGGGGSGGGGSGGGGSGGGGSEVNLVESGGGLVKPGGSLRLSCEASGFTFSYAWMSWVRQAPGKGLEWVGRIKSIADGGATDYAAPVRNRFTISRDDSRNTLYLEMHSLKTEDTAVYYCTTIPGNDAFDMWGQGTMVTVSS",
    "QUANTITY KIND": "log10 of koff",
    "RECORDED MEASUREMENT": -1.82
  },
  {
    "BINDER": "14C11.HL scFv-Fc protein (Fc fusion, HL: heavy-chain variable domain at the N-terminus; not shown: human IgG1 Fc moiety) QVTLKESGPVLVKPTETLTLTCTVSGFSLNNARMGVSWIRQPPGKALEWFAHIFSTDEKSFRTSLRSRLTLSKDTSKSQVVLTMTNMDPVDTATYYCARDSSNYEGYFDYWGQGILVTVSSGGGGSGGGGSGGGGSGGGGSEIVMTQSPATLSVSPGERATLSCRASQSVSNNLAWYQQKPGQAPRLLIYGASTRATGVPARFSGSDSGTEFSLTISSLQSEDFAVYFCQQYKDWPFTFGPGTKVEIK",
    "QUANTITY KIND": "log10 of koff",
    "RECORDED MEASUREMENT": -2.37
  },
  {
    "BINDER": "C6.HL scFv-Fc protein (Fc fusion, HL: heavy-chain variable domain at the N-terminus; not shown: human IgG1 Fc moiety) QVQLVQSGAEVKKPGSSVKVSCKASGDTFSSNAISWVRQAPGQGLEWMGVIIPIFGTADYAQKFQGRVTITADESTSTAYMELSSLRSEDTAVYYCARHTYHEYAGGYYGGAMDPWGQGTLVTVSSGGGGSGGGGSGGGGSGGGGSELQSVLTQPPSASGTPGQRVTISCSGSSSNIGSNYVYWYQQLPGTAPKILIYRNNQRPSGVPDRFSGSKSGTSASLAISGLRSEDEADYYCAAWDDNLSGWVFGTGTKLTVL",
    "QUANTITY KIND": "log10 of koff",
    "RECORDED MEASUREMENT": -1.70
  },
  {
    "BINDER": "26B9.HL scFv-Fc protein (Fc fusion, HL: heavy-chain variable domain at the N-terminus; not shown: human IgG1 Fc moiety) EVQLVESWGVLVKPGGSLRLSCAASGFIFNNAWMSWVRQAPGKGLEWIGRIKSKSDGGTTDYAAPVKDRFTISRDDSKDTLYLQMNGLKTEDTAVYFCTTAPGGPFDYWGQGTLVTVSSGGGGSGGGGSGGGGSGGGGSDIVLTQSPLSLPVTPGEPASISCRSSQSLLHRDGFNYLDWFLQKPGQSPQLLIYLASSRASGVPDRFSGSDSGTDFTLKISRVEAEDVGVYYCMQALQTPITFGQGTRLEIK",
    "QUANTITY KIND": "log10 of koff",
    "RECORDED MEASUREMENT": -1.40
  },
  {
    "BINDER": "26B9.LH scFv-Fc protein (Fc fusion, LH: light-chain variable domain at the N-terminus; not shown: human IgG1 Fc moiety) DIVLTQSPLSLPVTPGEPASISCRSSQSLLHRDGFNYLDWFLQKPGQSPQLLIYLASSRASGVPDRFSGSDSGTDFTLKISRVEAEDVGVYYCMQALQTPITFGQGTRLEIKGGGGSGGGGSGGGGSGGGGSEVQLVESWGVLVKPGGSLRLSCAASGFIFNNAWMSWVRQAPGKGLEWIGRIKSKSDGGTTDYAAPVKDRFTISRDDSKDTLYLQMNGLKTEDTAVYFCTTAPGGPFDYWGQGTLVTVSS",
    "QUANTITY KIND": "log10 of koff",
    "RECORDED MEASUREMENT": -1.47
  }
]

Hi, could you look up log10 of koff for each item in my list?
1. 32G8.HL scFv-Fc protein (Fc fusion, HL: heavy-chain variable domain at the N-terminus; not shown: human IgG1 Fc moiety) EVNLVESGGGLVKPGGSLRLSCEASGFTFSYAWMSWVRQAPGKGLEWVGRIKSITDGGVIDYAAPVRNRCTISRDDSRNTLYLEMHSLKTEDTAVYYCTTIPGNDDFDMWGQGRMVTVSSGGGGSGGGGSGGGGSGGGGSDIVLTQSPLSLSVTPGEPASISCRSSQSLLYSNGKNYLDWFLHKPGQSPQLLIYLGSNRASGVPDRFSGSGSGIDFILKISRVEAEDVGVYYCMQAQQTPITFGQGTRLEIK
2. 20B9.LH scFv-Fc protein (Fc fusion, LH: light-chain variable domain at the N-terminus; not shown: human IgG1 Fc moiety) EIVMTQSPATLSVSPGERATLSCRVSQSIGANLAWYQQKFGQAPRLLIYGASTRATGIPVRFSGGGSGTEFTLTISSLQSEDFAIYSCQQYIYWPFTFGPGTTVDIKGGGGSGGGGSGGGGSGGGGSQVTLKESGPVLVKPTETLTLTCTVSGFSLSNARMGVSWIRQPPGKALEWLGHIFSTDEKSYSTSLRGRITISKDTSRGLVVLTLTNMDPVDTATYYCARDSSNYEGYFDFWGPGFLVTVSS

Outgoing:
-1.89
-2.60
